System: Swiss mice
Assay: Acute hepatotoxicity assay, plasma liver markers
Type: in vivo
Details: Swiss mice, single 100 mg/kg intraperitoneal, 24 hours later, plasma
Procedure: Acute hepatotoxicity assays were performed in Swiss mice. Animals received a single administration of either vehicle, or 100 mg/kg of teriflunomide or a compound of the present invention (compounds from the list indicated previously) by intraperitoneal route. Twenty-four hours later, animals were sacrificed and the levels of liver markers AST (aspartate aminotransferase), ALT (alanine aminotransferase) and BIL (total bilirubin) in plasma were determined.
Task for the reader: assign each of the following compounds its reported BIL (total bilirubin) plasma level.
Enter your answer as a number in mg/dL; do not include the unit.

For `O=C(O)c1cc(C2CC2)ccc1Nc1cnc(-c2ccccc2Cl)nc1` the compound record lists BIL (total bilirubin) plasma level as 0.05

For `O=C(O)c1cc(C2CC2)ccc1Nc1cnc(-c2c(F)cccc2F)nc1` the compound record lists BIL (total bilirubin) plasma level as 0.07

For C/C(O)=C(\C#N)C(=O)Nc1ccc(C(F)(F)F)cc1 [Teriflunomide, reference compound] the compound record lists BIL (total bilirubin) plasma level as 0.46

For `Cc1ccc(Nc2cnc(-c3ccccc3F)c(C)c2)c(C(=O)O)c1` the compound record lists BIL (total bilirubin) plasma level as 0.11

For `Cc1ccc(Nc2cnc(-c3ccccc3Cl)nc2)c(C(=O)O)c1` the compound record lists BIL (total bilirubin) plasma level as 0.06

For `Cc1ccc(Nc2ccc(-c3ccccc3Cl)nc2)c(C(=O)O)c1` the compound record lists BIL (total bilirubin) plasma level as 0.13

For `Cc1ccc(Nc2cnc(-c3ccccc3)c(C)c2)c(C(=O)O)c1` the compound record lists BIL (total bilirubin) plasma level as 0.09

For `Cc1ccc(Nc2ccc(-c3c(F)cccc3F)nc2)c(C(=O)O)c1` the compound record lists BIL (total bilirubin) plasma level as 0.08

For `Cc1ccc(Nc2cnc(-c3ccccc3Cl)c(C)c2)c(C(=O)O)c1` the compound record lists BIL (total bilirubin) plasma level as 0.05

For `O=C(O)c1cc(C2CC2)ccc1Nc1cnc(-c2ccccc2F)nc1` the compound record lists BIL (total bilirubin) plasma level as 0.07
